Provide the reported CC50 of each item.
- Test Description: Cytotoxicity against human HepG2 cells
- Assay type: cell-based
- Test Conditions: read-out: TD50 (the source's name)
Enter your answer as a number in µg/mL; do not include the unit.

Given C=CCn1ncc2c(SCC#N)ncnc21 , respond with its CC50.
4

Read off the recorded CC50 for N#CCn1ncc2c(SCc3ccc(Cl)cc3)ncnc21
2

###

Give CC50 for every item shown.
- Test Description: Cytotoxicity against human HepG2 cells
- Type: cell-based
- Test Conditions: read-out: TD50 (the source's name)

Give reported CC50 value for c1ccc(CSc2ncnc3c2cnn3Cc2cccnc2)cc1
> 40 µg/mL

Consider the compound Clc1ccc(CSc2ncnc3c2cnn3Cc2cccnc2)cc1 and give its recorded CC50.
> 40 µg/mL

// Input: C=CCn1ncc2c(SCc3ccc(Cl)cc3)ncnc21 . Output its CC50 only.
> 20 µg/mL
